Reported logkw, Table S5 by item:
assay: Cyanopropyl (CN) chromatography, logkw from two gradients with DryLab; format: physicochemical; settings: Cyanopropyl chromatography, pH 7.4; short and long gradient
Observable: logkw, Table S5

[[record]]
chemical_smiles = "COc1ccc(-c2cnnc(NS(=O)(=O)c3cc(C(=O)Nc4ccccc4)c(Cl)cc3SCc3ccccc3)n2)cc1"
observable = "logkw, Table S5"
reported_measurement = 2.020

[[record]]
chemical_smiles = "Cc1ccc2cccnc2c1NS(=O)(=O)c1ccc(-n2cccc2)cc1"
observable = "logkw, Table S5"
reported_measurement = 2.966

[[record]]
chemical_smiles = "Cc1cc(S(=O)(=O)Nc2nnc(Cc3ccccc3[N+](=O)[O-])c(=O)[nH]2)c(SCc2cc3c(cc2Cl)OCO3)cc1Cl"
observable = "logkw, Table S5"
reported_measurement = 2.162

[[record]]
chemical_smiles = "O=S(=O)(Nc1cccc2nsnc12)c1ccc(-n2cccc2)cc1"
observable = "logkw, Table S5"
reported_measurement = 2.300

[[record]]
chemical_smiles = "O=S(=O)(Nc1ccc(Cl)cc1)c1ccc(-n2cccc2)cc1"
observable = "logkw, Table S5"
reported_measurement = 2.892

[[record]]
chemical_smiles = "Cc1cc(S(=O)(=O)Nc2nncc(-c3cccc(F)c3)n2)c(SCc2ccc(C(F)(F)F)cc2)cc1Cl"
observable = "logkw, Table S5"
reported_measurement = 2.277

[[record]]
chemical_smiles = "COc1ccc(-c2cnnc(NS(=O)(=O)c3cc(C(=O)Nc4ccc(Cl)cc4)c(Cl)cc3SCc3ccccc3)n2)cc1"
observable = "logkw, Table S5"
reported_measurement = 2.471

[[record]]
chemical_smiles = "CC(=O)NS(=O)(=O)c1cc(C)c(Cl)cc1SCc1cccc2ccccc12"
observable = "logkw, Table S5"
reported_measurement = 1.763


###

test: C18 chromatography (RP-HPLC), chromatographic hydrophobicity index; format: physicochemical; conditions: pH 7.4, 40 °C, acetonitrile gradient
Listed next: entries and their corresponding CHIC18.
Observable: CHIC18

[[record]]
chemical_smiles = "Cc1ccc2cccnc2c1NS(=O)(=O)c1ccc(-n2cccc2)cc1"
reported_measurement = 94.80

[[record]]
chemical_smiles = "Cc1cc(S(=O)(=O)Nc2nncc(-c3ccc(C(F)(F)F)cc3)n2)c(SCc2ccc(C(F)(F)F)cc2)cc1Cl"
reported_measurement = 91.60

[[record]]
chemical_smiles = "O=C(Nc1ccc(Cl)cc1)c1cc(S(=O)(=O)Nc2nncc(-c3ccc(C(F)(F)F)cc3)n2)c(SCc2ccccc2)cc1Cl"
reported_measurement = 92.50

[[record]]
chemical_smiles = "Cc1cc(S(=O)(=O)Nc2nnc(Cc3ccccc3)c(=O)[nH]2)c(SCc2cc3c(cc2Cl)OCO3)cc1Cl"
reported_measurement = 80.30

[[record]]
chemical_smiles = "Cc1cc(S(=O)(=O)NC(=O)C=Cc2ccccc2)c(SCc2cccc3ccccc23)cc1Cl"
reported_measurement = 73.10

[[record]]
chemical_smiles = "Cc1cc(S(=O)(=O)Nc2nnc(-c3ccccc3)c(=O)[nH]2)c(SCc2ccc(C(F)(F)F)cc2)cc1Cl"
reported_measurement = 82.80

[[record]]
chemical_smiles = "COc1cc(-c2cnnc(NS(=O)(=O)c3cc(C(=O)Nc4ccc(C)cc4)c(Cl)cc3SCc3ccccc3)n2)cc(OC)c1OC"
reported_measurement = 79.70


###

Below, each entry is listed with its recorded CHI (CHIIAM), Table S2.
assay: IAM chromatography (IAM-HPLC), IAM.PC.DD2 column; format: physicochemical; conditions: IAM chromatography, pH 7.4; from mean of three retention times
Observable: CHI (CHIIAM), Table S2

[[record]]
compound = "Cc1cc(S(=O)(=O)Nc2nnc(Cc3ccccc3)c(=O)[nH]2)c(SCc2cc3c(cc2Cl)OCO3)cc1Cl [Compound 11]"
reported_measurement = 35.5

[[record]]
compound = "Cc1ccc2cccc(NS(=O)(=O)c3ccc(-n4cccc4)cc3)c2n1 [Compound 4]"
reported_measurement = 45.9

[[record]]
compound = "Cc1cc(S(=O)(=O)NC(=O)C=Cc2ccccc2)c(SCc2cccc3ccccc23)cc1Cl [Compound 27]"
reported_measurement = 39.6

[[record]]
compound = "Cc1cc(S(=O)(=O)Nc2nncc(-c3cccc(F)c3)n2)c(SCc2ccc(C(F)(F)F)cc2)cc1Cl [Compound 24]"
reported_measurement = 38.3

[[record]]
compound = "O=S(=O)(Nc1cccc2cccnc12)c1ccc(-n2cccc2)cc1 [Compound 2]"
reported_measurement = 45.0

[[record]]
compound = "O=S(=O)(Nc1ccc(Cl)cc1)c1ccc(-n2cccc2)cc1 [Compound 6]"
reported_measurement = 45.4


These measurements were taken from paper PMC9268166.
